- assayDetails: yeast display, Sf9 membrane polyspecificity reagent, FACS + sequencing; frameworks hold sequencing errors
measurementLabel: polyreactivity (PSR sort gate)

Reference set, count: 6
QVQLVESGGGLVQAGGSLRLICAASGFTFSQYAMGWYREAPGKERELVAAISWNGGSTYYADSVKGRFTISRDNAKNTVYLQMNSLKPEDTAVYYWNRRWPFVRFYYWGQGTQVTVSS    high polyreactivity
QVQLVESGGGLVQAGGSLRLSCAASGRIFRDYAMGWYRQAPVKERELVAAITRSGDTTYYADSVKGRFTISRDNAKNTVYLQMNSLKPEDTAVYYCAARYVSRYYVYRGFEYWGQGTQVTVSS    high polyreactivity
QVQLVESGGGLVQAGGSLRLSCAASGLTFFLYAMGWYRQAPGKERELVAAISSRGGSTYYADSVKGRFTISRDNAKNTVYLQMNSLKTEDTAVYYCAAATKGDEDYWGQGTQVTVSS    high polyreactivity
QVQLVESGGGLVQAGGSLRLSCAASGSTLNRNVMGWYRQAPGKERELVAVITYGVGSTYYADSVKGRFTISRDNAKNTVYLQMNSLKPEDTAVYYCNRPTYLHSTSYSYDYWGQGTQVTVSS    low polyreactivity
QVQLVESGGGLVQAAGSLRLSCATSGFTFVSNAMGRYRQPHGKQRELVAAITKRRSGSTYYADSVKGRFTISRDNAKNTVYLQMNSLKPEDTAVYYCDRVPDTDGEYWGQGTQVTVSS    high polyreactivity
QVQLVESGGGLVQAGGSLRLSCAAYEFIFARNGMGWSRQAPGKERELVAAITNSGSTYADSVKGRFTISRDNAKNTVYLQMNSLKPEDTAVYYCNKDPGNVSSYNGGGYWGQGTQVTVSS    low polyreactivity

For the sequence `QVQLVESGGGLVQAGGSLRLSCAASGSIFYYYGMGWYRQAPGKESDLVARISKSVGRTYYADSVKGRFTISRDNAKNTVYLQMNSLKPEDTAVYYCAASRSFQGNRYDYWGQGTQVTVSS` , give its measured polyreactivity (PSR sort gate) value.
high polyreactivity

For the sequence `QVQLVESGGGLVQAGGSLRLSCAASGRTFNRNAMGWYRQAPGKERELVAAISWGGSRTYYADSVKGRFTISRDTAKNTVYLQMNSLKPEDTAVYYCAVDGFRGRSHGANDYWGQGTQVTVSS` , give its measured polyreactivity (PSR sort gate) value.
high polyreactivity

For the sequence `QVQLVESGGGLVQAGGSLRLSCAASGSIFGRNAMGWYRQAPGKEREFVATITSRGGRTYYADSVKGRFTISRDNAKNTVYLQMNSLKPEDTAVYYCAADTYISTLKKYRLGDYWGQGTQVTVSS` , give its measured polyreactivity (PSR sort gate) value.
low polyreactivity

For the sequence `QVQLVESGGGLVQAGGSLRLSCAASGSIFGDNAMAWYRQAPGKERELVARISSGGNTYYADSVKGRFTISRDNAKNTVYLQMNSLKPEDTAVYYCAAAIKVRYKKFPYYYWGQGTQVTVSS` , give its measured polyreactivity (PSR sort gate) value.
high polyreactivity

For the sequence `QVQLVESGGGLVQAGGSLRLSCAASGITLYNYAMGWYRQAPGKERELVAAISLSGGRTYYADSVKGRFTISRDNAKNTVYLQMNSLKPEDTAVYYCAAETDFVWSAPQLAYKVYYWGQGTQVTVSS` , give its measured polyreactivity (PSR sort gate) value.
low polyreactivity

// data source = the nanobody polyreactivity screen of Harvey et al. (2022)
